- Target entity: T1, PUF4 RNA-binding domain (Saccharomyces cerevisiae, UniProt P25339 537-888)
- T1 sequence: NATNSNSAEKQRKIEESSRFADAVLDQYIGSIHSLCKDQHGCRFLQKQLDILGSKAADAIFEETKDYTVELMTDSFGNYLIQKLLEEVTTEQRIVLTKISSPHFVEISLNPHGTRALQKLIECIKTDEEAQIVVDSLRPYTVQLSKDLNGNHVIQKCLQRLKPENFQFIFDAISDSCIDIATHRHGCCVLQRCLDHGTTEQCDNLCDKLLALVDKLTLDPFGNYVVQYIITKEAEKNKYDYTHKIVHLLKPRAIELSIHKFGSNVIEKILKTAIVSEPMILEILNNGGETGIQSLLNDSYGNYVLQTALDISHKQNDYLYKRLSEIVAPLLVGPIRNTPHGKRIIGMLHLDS
- Method summary: Mg; RNA-MaP; 20 mM Na-HEPES pH 7.4, 30 mM KOAc, 0.75 mM MgCl2, 0.1% Tween-20, 5% glycerol, 0.1 mg/mL BSA, 2 mM DTT; 25 C; 0.0125-409.6 nM protein
- Condition context: tags: N-His6-TEV cleaved; C-SNAP kept, Cy3B-labelled; label: tethered on chip by stalled RNA polymerase
Below is a list of entries, each paired with its recorded pKd value.
Scale: pKd equals -log10([C]), with [C] in mol/L.

Worked examples follow.
Ic_S2_P3E.1_K3.1_C3.1_H3.1_A3.1_[A6T]_F3.1_[T7C]_[A8G]_T3.1 (ssRNA) RNA: UUUGAUUAAUAUGAUAUCGUUCUUUCUUGUAUUCGUUCUUUCUCGAUAUCAUAUUAAUCUUU : 6.63
Id_ii_S2_P4E.2_K4.1_C4.2_[C-2T]_[T-1C]_H4.1_A4.1_F4.1_T4.2_[G10C]_[T11C] (ssRNA) RNA: UUUGAUUAAUAUGAUAUCGUUCUUUCUUCUGUAUAUUACCUUCUUUCUCGAUAUCAUAUUAAUCUUU : 9.25

Qu. // pKd lookup, key: UCUCUUCCUGUAUUAUUAACUCUCUU (ssRNA) [Id_ii_S1_P5E.2_K5.1_C5.2_[T-1C]_H5.1_A5.1_F5.1_T5.2_[T11A]_[A12C]]
Ans. 8.14
